Assay Protocol: mn = molality of the nth substance listed, in mol/kg
Condition Label: 298.15 K; 100 kPa; Liquid; Capillary tube (Ostwald / Ubbelohde) method; m1 = 0.08
± gives the expanded uncertainty stated by the source.
Assignment: determine reported viscosity for the given compounds.

1) COc1cc(-c2cc(-c3ccc(Cl)cc3)[nH]c(=O)c2C#N)ccc1O + C[S+](C)[O-] ... 2.129 ± 0.39 mPa·s
2) COc1cc(-c2cc(-c3ccccc3)[nH]c(=O)c2C#N)ccc1O + C[S+](C)[O-] ... 2.063 ± 0.37 mPa·s
3) COc1cc(-c2cc(-c3ccccc3O)[nH]c(=O)c2C#N)ccc1O + C[S+](C)[O-] ... 2.201 ± 0.4 mPa·s

Turning now to a further record.
INPUT: Need viscosity, item COc1cc(-c2cc(-c3ccc(O)cc3)[nH]c(=O)c2C#N)ccc1O + C[S+](C)[O-]
OUTPUT: 2.243 ± 0.41 mPa·s

* * *

Assignment: determine reported mass density for the given molecules.
Assay Protocol: mn = molality of the nth substance listed, in mol/kg
Condition Label: 298.15 K; 100 kPa; Liquid; Vibrating tube method; m1 = 0.06
± gives the expanded uncertainty stated by the source.
In your response, put the unit directly after the numeric value.

1) COc1cc(-c2cc(-c3ccccc3O)[nH]c(=O)c2C#N)ccc1O + C[S+](C)[O-] ... 1099.5 ± 1 kg/m3

Parameters: items (list). Returns: mass density for each item.
1. COc1cc(-c2cc(-c3ccccc3)[nH]c(=O)c2C#N)ccc1O + C[S+](C)[O-]
2. COc1cc(-c2cc(-c3ccc(Cl)cc3)[nH]c(=O)c2C#N)ccc1O + C[S+](C)[O-]
3. COc1cc(-c2cc(-c3ccc(O)cc3)[nH]c(=O)c2C#N)ccc1O + C[S+](C)[O-]

OUTPUT:
["1098.59 ± 1 kg/m3", "1099.79 ± 1 kg/m3", "1099.52 ± 1 kg/m3"]

* * *

Assignment: determine reported speed of sound for the given compounds.
Assay Protocol: mn = molality of the nth substance listed, in mol/kg
Condition Label: 308.15 K; 100 kPa; Liquid; Frequency=3 MHz; Sing-around technique in a fixed-path interferometer; m1 = 0.02
Numbers after ± are expanded uncertainties.
In your response, put the unit directly after the numeric value.

// below: answered compounds
1) COc1cc(-c2cc(-c3ccc(O)cc3)[nH]c(=O)c2C#N)ccc1O + C[S+](C)[O-] ... 1453.2 ± 1.3 m/s
2) COc1cc(-c2cc(-c3ccccc3)[nH]c(=O)c2C#N)ccc1O + C[S+](C)[O-] ... 1452.8 ± 1.3 m/s
3) COc1cc(-c2cc(-c3ccc(Cl)cc3)[nH]c(=O)c2C#N)ccc1O + C[S+](C)[O-] ... 1453.4 ± 1.3 m/s

Turning now to a further record.
INPUT: Need speed of sound, item COc1cc(-c2cc(-c3ccccc3O)[nH]c(=O)c2C#N)ccc1O + C[S+](C)[O-]
OUTPUT: 1453.1 ± 1.3 m/s

* * *

Assay Protocol: mn = molality of the nth substance listed, in mol/kg
Condition Label: 308.15 K; 100 kPa; Liquid; Vibrating tube method; m1 = 0.1
Numbers after ± are expanded uncertainties.
Assignment: determine reported mass density for the given molecules.

// below: answered molecules
1) COc1cc(-c2cc(-c3ccccc3)[nH]c(=O)c2C#N)ccc1O + C[S+](C)[O-] ... 1090.64 ± 1 kg/m3
2) COc1cc(-c2cc(-c3ccccc3O)[nH]c(=O)c2C#N)ccc1O + C[S+](C)[O-] ... 1091.96 ± 1 kg/m3
3) COc1cc(-c2cc(-c3ccc(Cl)cc3)[nH]c(=O)c2C#N)ccc1O + C[S+](C)[O-] ... 1092.32 ± 1 kg/m3

Turning now to a further record.
INPUT: Need mass density, item COc1cc(-c2cc(-c3ccc(O)cc3)[nH]c(=O)c2C#N)ccc1O + C[S+](C)[O-]
OUTPUT: 1091.98 ± 1 kg/m3
